EXPERIMENT SUMMARY: in vitro
COND: human, hela cells, % viability
So I've got a bunch of molecules here, and I need their viability at 28.5 h, 10 µM values.
The answer is to be given in %; state only the numeric part.

[Q] Indicate its recorded viability at 28.5 h, 10 µM; the molecule in question is Cc1onc(-c2ccccc2)c1C(=O)Nc1cccc(S(=O)(=O)N2CCOCC2)c1
[A] 101

[Q] Indicate its recorded viability at 28.5 h, 10 µM; the molecule in question is O=C(O)C1CCC(CNC(=O)C2Cc3ccccc3CN2)CC1 (centres unmarked)
[A] 84.6

[Q] Indicate its recorded viability at 28.5 h, 10 µM; the molecule in question is COc1ccc(Oc2ncnc3c2[nH]c2ccccc23)cc1
[A] 88.9

[Q] Indicate its recorded viability at 28.5 h, 10 µM; the molecule in question is CCNC(=O)Nc1ncc(-c2cc(OC)c(OC)c(OC)c2)c2cccnc12
[A] 83.2

[Q] Indicate its recorded viability at 28.5 h, 10 µM; the molecule in question is Cc1c(NC(=O)CSc2nncn2C)ccc2nsnc12
[A] 104

[Q] Indicate its recorded viability at 28.5 h, 10 µM; the molecule in question is Brc1cn2ccnc2c(NCC2CC2)n1
[A] 93.6

[Q] Indicate its recorded viability at 28.5 h, 10 µM; the molecule in question is S=c1[nH]cnc2scc(-c3ccc(Cl)cc3)c12
[A] 76.5

[Q] Indicate its recorded viability at 28.5 h, 10 µM; the molecule in question is O=C(O)C1CCCCC1C(=O)NCCCN1CCCC1=O (centres unmarked)
[A] 83.1

[Q] Indicate its recorded viability at 28.5 h, 10 µM; the molecule in question is Cc1nnc(Nc2ccc3c(c2)nc2n3CCN(C3CCCCC3)C2)c2ccccc12
[A] 90.9

[Q] Indicate its recorded viability at 28.5 h, 10 µM; the molecule in question is CN1CCN(S(=O)(=O)c2ccc(NC(=O)Cc3ccc([N+](=O)[O-])cc3)cc2)CC1
[A] 121

[Q] Indicate its recorded viability at 28.5 h, 10 µM; the molecule in question is CC1=C(C)CC(C(=O)NC(C)CCc2ccccc2)C(C(=O)O)C1 (centres unmarked)
[A] 99.9

[Q] Indicate its recorded viability at 28.5 h, 10 µM; the molecule in question is O=C(Nc1cccc(Cl)c1)Nc1ccc(C(=O)O)c(O)c1
[A] 94.2

[Q] Indicate its recorded viability at 28.5 h, 10 µM; the molecule in question is O=C(NCCOCc1ccc(Cl)cc1)c1cc(-n2cnnc2)ccc1Cl
[A] 101

[Q] Indicate its recorded viability at 28.5 h, 10 µM; the molecule in question is Cc1ccc2nc(SCc3cccc([N+](=O)[O-])c3)nc(C)c2c1
[A] 106

[Q] Indicate its recorded viability at 28.5 h, 10 µM; the molecule in question is CC(=O)N1CCc2c([nH]c3ccc(Br)cc23)C12CCN(CCCC#N)CC2
[A] 83.2

[Q] Indicate its recorded viability at 28.5 h, 10 µM; the molecule in question is O=C(O)c1cccc(Sc2cc(N3CCCC3)ncn2)c1
[A] 113

[Q] Indicate its recorded viability at 28.5 h, 10 µM; the molecule in question is O=S(=O)(Nc1cccc(Cl)c1)c1ccc(OC(F)(F)F)cc1
[A] 109

[Q] Indicate its recorded viability at 28.5 h, 10 µM; the molecule in question is Cc1cc(C(=O)N2C3CCC2CC(O)(c2ccnn2C)C3)sc1C (centres unmarked)
[A] 103

[Q] Indicate its recorded viability at 28.5 h, 10 µM; the molecule in question is CCc1ccc2occ(CC(=O)Nc3ccc(C(=O)OC)cc3)c2c1
[A] 105

[Q] Indicate its recorded viability at 28.5 h, 10 µM; the molecule in question is O=C(NC1CCCCC1)[C@H]1CN2CCC1C[C@@H]2Cn1cc(CO)nn1 (some centres unmarked)
[A] 102

[Q] Indicate its recorded viability at 28.5 h, 10 µM; the molecule in question is C[C@H]1[C@@H]2[C@H]3OC(=O)[C@@H](C)[C@@H]3CC[C@@]2(C)CC[C@@H]1NC(=O)c1ccccn1
[A] 107

[Q] Indicate its recorded viability at 28.5 h, 10 µM; the molecule in question is CS(=O)(=O)Nc1ccc(C(=O)Nc2ccc(S(=O)(=O)N3CCCC3)cc2)cc1
[A] 116

[Q] Indicate its recorded viability at 28.5 h, 10 µM; the molecule in question is Nc1ncc(-c2ccc(OC(F)(F)F)cc2)nc1-c1ccc(O)cc1
[A] 95.8

[Q] Indicate its recorded viability at 28.5 h, 10 µM; the molecule in question is O=C(Cc1ccccc1)N1CCN(S(=O)(=O)N2CCCCC2)CC1
[A] 85.2

[Q] Indicate its recorded viability at 28.5 h, 10 µM; the molecule in question is CN(C)CCNc1cc(-c2ccc3ccccc3c2)nc2ccccc12 [CBK278186B]
[A] 67.9

[Q] Indicate its recorded viability at 28.5 h, 10 µM; the molecule in question is OCCN(CCO)CC1CC=CCC1 (centres unmarked)
[A] 108

[Q] Indicate its recorded viability at 28.5 h, 10 µM; the molecule in question is CC(NCC(O)c1ccco1)c1ccc(C#N)s1 (centres unmarked)
[A] 85.9

[Q] Indicate its recorded viability at 28.5 h, 10 µM; the molecule in question is COCCN1C(=O)C2(CC(=O)N(CCOc3ccccc3)C2=O)c2ccccc21 (centres unmarked)
[A] 98.5

[Q] Indicate its recorded viability at 28.5 h, 10 µM; the molecule in question is CC(C)N/C(=N/S(=O)(=O)c1ccccc1)c1ccccc1
[A] 98.2

[Q] Indicate its recorded viability at 28.5 h, 10 µM; the molecule in question is O=C(Cc1ccccc1)Nc1nnc(-c2ccccc2)o1
[A] 95.4

[Q] Indicate its recorded viability at 28.5 h, 10 µM; the molecule in question is CC1(C)Cc2nc(N3CCOCC3)ncc2C(NC(=O)c2cn[nH]c2)C1 (centres unmarked)
[A] 106

[Q] Indicate its recorded viability at 28.5 h, 10 µM; the molecule in question is COc1ccc(CCNC(=O)c2cccc(-c3ccc(OC4CCNCC4)cc3)n2)cc1OC [CBK126548T]
[A] 91.7

[Q] Indicate its recorded viability at 28.5 h, 10 µM; the molecule in question is N#CC1=C(N)n2c(s/c(=C\c3ccc(O)cc3)c2=O)=C(C#N)C1c1ccc(O)cc1 (centres unmarked)
[A] 103

[Q] Indicate its recorded viability at 28.5 h, 10 µM; the molecule in question is COc1ccccc1[C@@H]1C[C@H](OC(=O)c2ccc(F)cc2)C(=O)N1C
[A] 92

[Q] Indicate its recorded viability at 28.5 h, 10 µM; the molecule in question is Cc1nn(C(C)CC(=O)NCC2CCN(C(C)C)CC2)c(C)c1C (centres unmarked)
[A] 84.2

[Q] Indicate its recorded viability at 28.5 h, 10 µM; the molecule in question is COc1ccccc1N(CC(O)CN1C(C)CCCC1C)S(=O)(=O)c1ccccc1 (centres unmarked)
[A] 94.4

[Q] Indicate its recorded viability at 28.5 h, 10 µM; the molecule in question is CN1CCN(CCCNC(=O)N2CCN(c3ccc(F)cc3)CC2)CC1
[A] 91.2

[Q] Indicate its recorded viability at 28.5 h, 10 µM; the molecule in question is O=C(COc1ccccc1)N1CCC(c2cccc(Cc3ccccc3F)n2)CC1
[A] 104

Data origin: paper PMC12040169
